# PROCEDURE_DETAILS: A2780 ovarian cancer cell cytotoxicity, dose response, cytotoxicity control, plate reader, dry powder samples (AID 743046)
# REPORTED_CONDITIONS: series mostly up to 35 µM
Results with a measured potency or affinity are listed apart. The source made the active and inactive calls. No rule for the calls is given here.
VALUE_TYPE: activity change, negative = cytotoxicity

* C[C@@H]1CN([C@@H](C)CO)C(=O)c2cc(NS(=O)(=O)c3ccc(Cl)cc3)ccc2O[C@@H](C)CCCCO[C@H]1CN(C)Cc1ccc(C(F)(F)F)cc1 | inactive
* C[C@@H]1CN([C@H](C)CO)C(=O)c2cc(NS(=O)(=O)c3ccc(Cl)cc3)ccc2O[C@@H](C)CCCCO[C@H]1CN(C)Cc1ccc2c(c1)OCO2 | inactive
* CN(C)CC#Cc1ccc([C@@H]2[C@H](CO)N3CCCCN(C(=O)Nc4ccc(F)cc4)C[C@@H]23)cc1 | inactive
